- protocol.details: Aqueous solubility of the compound
- Assay type: physicochemical
quantity: solubility (µg/mL)
Expressed in µg/mL, but write only the number.

Cc1cc(S(C)(=O)=O)cc2c1NNC(C(N)=O)=C2Nc1cccc(C#N)c1; 1

Request: For Cc1cc(S(C)(=O)=O)cc2c(Nc3cccc(C#N)c3)c(C(N)=O)cnc12 , what is its reported solubility?
Result: 1

Request: Quick one: solubility for Cc1cc(S(C)(=O)=O)cc2c1NNC(C(N)=O)=C2Nc1cncc(F)c1 ?
Result: 37

Request: # query: solubility of entry CC(C)(C)S(=O)(=O)c1ccc2c(c1)C(Nc1cncc(F)c1)=C(C(N)=O)NN2
Result: 1

Request: Could you tell me which solubility is on file for CS(=O)(=O)c1ccc2c(c1)C(Nc1cncc(Cl)c1)=C(C(N)=O)NN2 ?
Result: 7

Request: // lookup solubility for Cc1cc(S(C)(=O)=O)cc2c1NNC(C(N)=O)=C2Nc1cncc(Cl)c1
Result: 12

----------
- Tested on: Blood
- protocol.details: Inhibition of LPS-induced TNFalpha production in human whole blood
- Format: functional, tissue-based
Overview of recorded IC50 for various molecules
Please respond with the number in nM and leave the unit unwritten.

CS(=O)(=O)c1cc(F)c2c(c1)C(Nc1cncc(F)c1)=C(C(N)=O)NN2; 158
Cc1cc(S(C)(=O)=O)cc2c(Nc3cccc(C#N)c3)c(C(N)=O)cnc12; 12.6
Cc1cc(S(C)(=O)=O)cc2c1NNC(C(N)=O)=C2Nc1cccc(C#N)c1; 2.51
CCn1nccc1NC1=C(C(N)=O)NNc2c(C)cc(S(=O)(=O)CC)cc21; 10
Cc1cc(S(C)(=O)=O)cc2c1NNC(C(N)=O)=C2Nc1cncc(F)c1; 5.01

Alright, here's another molecule for you.
Request: Requested read-out: IC50. Entry: CC(C)(C)S(=O)(=O)c1ccc2c(c1)C(Nc1cncc(F)c1)=C(C(N)=O)NN2
Result: 12.6

----------
# bioavailability values compiled below
- protocol.details: Oral bioavailability in rat
- Format: ADME, organism-based
- recorded.conditions: in vivo

CC(C)(C)S(=O)(=O)c1ccc2c(c1)C(Nc1cncc(F)c1)=C(C(N)=O)NN2; 57%
Cc1cc(S(C)(=O)=O)cc2c1NNC(C(N)=O)=C2Nc1cccc(C#N)c1; 17%
Cc1cc(S(C)(=O)=O)cc2c1NNC(C(N)=O)=C2Nc1cncc(Cl)c1; 50%
Cc1cc(S(C)(=O)=O)cc2c1NNC(C(N)=O)=C2Nc1cncc(F)c1; 34%

Request: // returns reported bioavailability for input CCn1nccc1NC1=C(C(N)=O)NNc2c(C)cc(S(=O)(=O)CC)cc21
Result: 41%

Request: Quick one: bioavailability of CS(=O)(=O)c1ccc2c(c1)C(Nc1cncc(Cl)c1)=C(C(N)=O)NN2 ?
Result: 66%

----------
Each record here notes measured half-life.
- protocol.details: Half life in cynomolgus monkey
- Type: ADME, organism-based, Macaca fascicularis
- recorded.conditions: in vivo
Respond with the bare value in h.

Take a look at these entries with their results.
Cc1cc(S(C)(=O)=O)cc2c1NNC(C(N)=O)=C2Nc1cccc(C#N)c1; 7.2
Cc1cc(S(C)(=O)=O)cc2c(Nc3cccc(C#N)c3)c(C(N)=O)c(=O)[nH]c12; 4.2

From here, focus on the item given below.
Request: Could you share which half-life value was measured for Cc1cc(S(C)(=O)=O)cc2c(Nc3cccc(C#N)c3)c(C(N)=O)cnc12 ?
Result: 0.8
